# Assay summary: Plasma pharmacokinetics in rats after tracheal nebulization, intravenous injection and oral gavage (Example 1)
# Assay type: in vivo, SD rats
# Cond: male, Sprague-Dawley, inhaled; rat plasma; tracheal nebulization (inh) 6.4 mg/kg
Outcome measure: AUC(0-t) (µg·h/mL)
Express it in µg·h/mL; write the number only.

[Q] Please report the measured AUC(0-t) for O=C(O[C@@H]1Cc2c(O)cc(O)cc2O[C@@H]1c1cc(O)c(O)c(O)c1)c1cc(O)c(O)c(O)c1 [EGCG, (-)-Epigallocatechin gallate]
[A] 1.86

###

# Assay summary: Pharmacokinetics of low-dose tracheal nebulization and oral gavage in rat plasma and lungs (Example 3)
# Type: in vivo, rats
# Cond: lung, inhaled or intranasal; rat; inhalation dose above 0.2 mg/kg; read-out: maximum drug concentration (Cmax) in the lungs
Outcome measure: Cmax

[Q] Please report the measured Cmax for O=C(O[C@@H]1Cc2c(O)cc(O)cc2O[C@@H]1c1cc(O)c(O)c(O)c1)c1cc(O)c(O)c(O)c1 [EGCG, (-)-Epigallocatechin gallate]
[A] > 1000 ng/mL
